test system: 967376-340-R-J2-PDC multicell spheroid viability; assay: Anticancer human tumor 967376-340-R-J2-PDC patient-derived colon adenocarcinoma cell line growth inhibition [PI3K]; conditions: second compound 1 µM; first compound 0.1 µM; hits give low values;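 also: luminescence used as surrogate of cell viability; spheroids exposed to agents for 7 days before read-out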
# label = 1 if viability, T/C < 50% else 0

Query string: hey, is viability, T/C for CC1(C)CCC(Nc2ncc(C(F)(F)F)c(-c3c[nH]c4c(P(C)(C)=O)c(C#N)ccc34)n2)CN1 (stereo not given) + COc1c(OCCCN2CCOCC2)ccc2c3n(c(=NC(=O)c4cnc(N)nc4)nc12)CCN3 lower than 50% or not?
Result string: 1

Query string: hey, is viability, T/C for Cn1nccc1Nc1nccc(-c2ccn(C(CO)c3ccc(Cl)c(F)c3)c(=O)c2)n1 (stereo not given) + CC(Nc1ccc2c(c1)OCCn1cc(N3C(=O)OCC3C(F)F)nc1-2)C(N)=O lower than 50% or not?
Result string: 1

Query string: hey, is viability, T/C for CC(=O)c1c(C)c2cnc(Nc3ccc(N4CCNCC4)cn3)nc2n(C2CCCC2)c1=O + CC(Nc1ncnc2nc[nH]c12)c1cc2cccc(Cl)c2c(=O)n1-c1ccccc1 lower than 50% or not?
Result string: 0

Query string: hey, is viability, T/C for CNC(=O)c1ccc(N2C(=S)N(c3ccc(C#N)c(C(F)(F)F)c3)C(=O)C2(C)C)cc1F + COc1c(OCCCN2CCOCC2)ccc2c3n(c(=NC(=O)c4cnc(N)nc4)nc12)CCN3 lower than 50% or not?
Result string: 1

Query string: hey, is viability, T/C for CC(C)NCC(C(=O)N1CCN(c2ncnc3c2C(C)CC3O)CC1)c1ccc(Cl)cc1 (stereo not given) + Cc1nc(NC(=O)N2CCCC2C(N)=O)sc1-c1ccnc(C(C)(C)C(F)(F)F)c1 lower than 50% or not?
Result string: 0
